Source of measurements: patent US11667697

Biological target: VARV ortholog of A27 (variola virus)
Test: purified antigen ELISA
Measured EC50 by item
# unit: µg/mL | format: bare number

Some entries whose results are on file:
- Binder: "VACV-301 (antibody, V domains shown) VH: EVQLLESGGGLVQPGGSLRLSCAASGFSFSSYAMSWVRQAPGKGLEWVSGIGNSGDRTFYADSAKGRFTIFRDNSNNRLYLQMNSLRAADTAVYYCAKWGRFESGAFWGQGVLVTVSS VL: SYELTQSPSVSVSPGQTARITCSGDALPEQYAYWYQQKPGQAPVLVIYKDSERPSGIPERFSGSGSGTTVTLTITGVQAEDEADYYCQSADNSGTYEVFGTGTKVTVL"
  Result Unit: "µg/mL"
  EC50: 0.11
- Binder: "VACV-300 (antibody, V domains shown) V domain 1: QVQLVQSGAEVKKPGSSVKVSCKASGGTFSSYAISWVRQAPGQGLEWMGGIIPIFGTANYAQKFQGRVTITADESTGTAYMELTSLRSEDTAIYYCARASEQWLASINWFDPWGQGTLVTVSS V domain 2: QSALTQPASVSGSPGQSITISCTGTSSDVGSYNLVSWYQQHPGKAPKLMIYEVSKRPSGVSNRFSASKSGNTASLTISGLQAEDEADYYCCSYAGSSTLVFGGGTQVTVL"
  Result Unit: "µg/mL"
  EC50: 0.79
- Binder: "VACV-303 (antibody, V domains shown) VH: EVQLLESGGGLVQPGGSLRLSCAASGFTFSSYAMSWVRQAPGKGLEWVSAISGTGGNTYYADSVKGRFTISRDKSKNTLYLQMHSLRAEDTAVYYCATSLIWWLQSDYWGQGTLVTVSS VL: DIQMTQSPSSLSASVGDRVTITCRASQSIASYLIWYQQKPGNAPKLLIYAASSLQSGVPSRFSGSGSGTDFTLTISSLQPEDFATYYCQQSYSTPQTFGQGTKVDIK"
  Result Unit: "µg/mL"
  EC50: 0.16

Lookup: Supply EC50 value. Item: VACV-154 (antibody, V domains shown) VH: EVQLLESGGGLVQPGESLRLSCAASGFTLRNYAMSWVRQTPGKGLEWVSAISGSGGSTYYADSVKGRFTISRDTSKNTLYVQMNSLRAEDTAVYYCAKIRLDSSGYSGAFDIWGQGTRVTVSS VL: SYELTQPPSVSVSPGQTARITCSGDALPKQYASWYQQKPGQAPVLVIYKDSERPSGIPERFSGSSSGTTVTLTISGVQAEDEADYYCQSADSSGTYPVVFGGGTQLTVL
Found: 0.3
